Could you please report measured Drug uptake for the items listed next?
system: Cerebellum; assay: Biodistribution in NMRI mouse cerebellum assessed per gram of tissue at 3.7 MBq/mL, iv after 60 mins by gamma counting; format: ADME, organism-based; conditions: in vivo, 1 h

Please give the documented Drug uptake of [11CH3]Nc1ccc(-c2nc3ccc(O)cc3s2)cc1 [PITTSBURGH COMPOUND B]
0.31%

State its Drug uptake: CNc1ccc2nc(-c3ccc([18F])cc3)sc2c1
1.26%

Using the record for Nc1ccc2nc(-c3ccc([18F])cc3)sc2c1 , state its measured Drug uptake.
1.34%

Please look at this molecule and report its Drug uptake: CN(C)c1ccc2nc(-c3ccc([18F])cc3)sc2c1
2.24%

Please report the measured Drug uptake for Cc1ccc2nc(-c3ccc([18F])cc3)sc2c1
0.39%
